Where do these numbers come from? They come from the RNAGym collection of RNA variant scans (doi:10.7554/elife.80360).

Entries and their self-cleavage
B1: Hairpin Ribozyme (parent)
chain: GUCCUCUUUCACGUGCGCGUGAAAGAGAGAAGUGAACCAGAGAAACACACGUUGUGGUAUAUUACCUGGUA

variants of: B1; assay: self-cleavage, relative activity (ratio to wild type); higher = more cleavage; co-transcriptional
No unit in the answer, only the number.

• GUCCUCUUUGACGUGCGCGUGAAAGAGAGAAGUGAACCAGAGAAACACACGUUGUGGUACAUUACCUGGUA = 0.815

input: Reported self-cleavage, variant GUCCUCUUUCACGUGCGCGGGAAAGAGAGAAGUGAACCAGAGAAACACACGUUGUGGUAUACUACCUGGUA : ____
output: 0.188

input: Reported self-cleavage, variant GUCCUCUUUCACGUGCGCGUGAAAGAGAGAAGUGAACCAGAGAAACACACGUGGUGGUAUAUUACUUGGUA : ____
output: 0.552

input: Reported self-cleavage, variant GUCCACUUUCACGUGCGCGUGAAAGCGAGAAGUGAACCAGAGAAACACACGUUGUGGUAUAUUACCUGGUA : ____
output: 0.491

input: Reported self-cleavage, variant GUCCUCUUUCACGUGCGCGUGAAAGAGAGAAGUGAAUCAGAGAAACACACGUUGUGGUAUAUUACGUGGUA : ____
output: 0.195

input: Reported self-cleavage, variant GUCCCCUUUCACGUGCGCGUGAAAGAGAGAAGUGACCCAGAGAAACACACGUUGUGGUAUAUUACCUGGUA : ____
output: 0.576

input: Reported self-cleavage, variant GUCCUCUUUCACGUGCGCGUGAAAGAGAGAAGUGAACCAGAGAAACACACGUUGGGGUAUAUUACCUGGUU : ____
output: 0.209

input: Reported self-cleavage, variant GUCCUCUUUCACGUGAGCGUUAAAGAGAGAAGUGAACCAGAGAAACACACGUUGUGGUAUAUUACCUGGUA : ____
output: 0.72

input: Reported self-cleavage, variant GUCCUCUUUCACGUGCGCGUGAAAGAGACAAGUGAACCAGAGAAACACACGUUGUGGUAUAAUACCUGGUA : ____
output: 0.13

input: Reported self-cleavage, variant GUCCUAUUUCUCGUGCGCGUGAAAGAGAGAAGUGAACCAGAGAAACACACGUUGUGGUAUAUUACCUGGUA : ____
output: 0.399

input: Reported self-cleavage, variant GUCCUCUUUCACGUGCGCGUGAAAGAGAGAAGUGAACCAGAGGAACAGACGUUGUGGUAUAUUACCUGGUA : ____
output: 0.139

input: Reported self-cleavage, variant GUCCUCUUUCACGUGCGGGUGAAAGAGAGAAGUGAACCAGAGAAACACACGUUGUGGUAUAUUACCGGGUA : ____
output: 0.275

input: Reported self-cleavage, variant GUCCUCUUUCACGUGGGCGUGAAAGAGAGAAGUGAACCAGAGAAACACACGUUGUGGUAUGUUACCUGGUA : ____
output: 0.151

input: Reported self-cleavage, variant GUCCUCUUUCAGGUGCGCGUGAAAGAUAGAAGUGAACCAGAGAAACACACGUUGUGGUAUAUUACCUGGUA : ____
output: 0.261

input: Reported self-cleavage, variant GUCCUCUUUCACGUGCGCGUGAAAGAGAGAAGUAAACCAGUGAAACACACGUUGUGGUAUAUUACCUGGUA : ____
output: 1.23
